test: Circular dichroism melting temperature (Tm), CD signal at 222 nm versus temperature
Format: physicochemical
Set-up: key: Tm difference in °C from reference 3M-GGBP
condition-label: increase of Tm over reference protein 3M-GGBP; CD, PBS
Reported + ΔTm values for the following molecules.
When you answer, write just the number.

Please review the following examples before continuing.
>  <molecule>
Modified protein 8: 3M-GGBP (SEQ ID NO:3) with substitution N226G (protein) ADTRIGVTIYKYDDNFMSVVRKAIEQDAKAAPDVQLLMNDSQNDQSKQNDQIDVLLAKGVKALAINLVDPAAAGTVIEKARGQNVPVVFFNKEPSRKALDSYDKAYYVGTDSKESGIIQGDLIAKHWAANQGWDLNKDGQIQFVLLKGCPGHPDAEARTTYVIKELNDKGIKTEQLQLDTAMWDTAQAKDKMDAWLSGPNANKIEVVIANNDRMAMGAVEALKAHGKSSIPVFGVDASPEALALVKSGALAGTVLNDANNQAKATFDLAKNLADGKGAADGTNWKIDNKVVRVPYVGVDKDNLAEFSKK

>  <observed>
0.9

$$$$
>  <molecule>
Modified protein 7: 3M-GGBP (SEQ ID NO:3) with substitutions G198S, P199S, N200K (protein) ADTRIGVTIYKYDDNFMSVVRKAIEQDAKAAPDVQLLMNDSQNDQSKQNDQIDVLLAKGVKALAINLVDPAAAGTVIEKARGQNVPVVFFNKEPSRKALDSYDKAYYVGTDSKESGIIQGDLIAKHWAANQGWDLNKDGQIQFVLLKGCPGHPDAEARTTYVIKELNDKGIKTEQLQLDTAMWDTAQAKDKMDAWLSSSKANKIEVVIANNDRMAMGAVEALKAHNKSSIPVFGVDASPEALALVKSGALAGTVLNDANNQAKATFDLAKNLADGKGAADGTNWKIDNKVVRVPYVGVDKDNLAEFSKK

>  <observed>
0.5

$$$$
>  <molecule>
Modified protein 3: 3M-GGBP (SEQ ID NO:3) with substitutions G82E, Q83K, N84D (protein) ADTRIGVTIYKYDDNFMSVVRKAIEQDAKAAPDVQLLMNDSQNDQSKQNDQIDVLLAKGVKALAINLVDPAAAGTVIEKAREKDVPVVFFNKEPSRKALDSYDKAYYVGTDSKESGIIQGDLIAKHWAANQGWDLNKDGQIQFVLLKGCPGHPDAEARTTYVIKELNDKGIKTEQLQLDTAMWDTAQAKDKMDAWLSGPNANKIEVVIANNDRMAMGAVEALKAHNKSSIPVFGVDASPEALALVKSGALAGTVLNDANNQAKATFDLAKNLADGKGAADGTNWKIDNKVVRVPYVGVDKDNLAEFSKK

>  <observed>
1.5

$$$$
>  <molecule>
Modified protein 9: 3M-GGBP (SEQ ID NO:3) with substitution N226K (protein) ADTRIGVTIYKYDDNFMSVVRKAIEQDAKAAPDVQLLMNDSQNDQSKQNDQIDVLLAKGVKALAINLVDPAAAGTVIEKARGQNVPVVFFNKEPSRKALDSYDKAYYVGTDSKESGIIQGDLIAKHWAANQGWDLNKDGQIQFVLLKGCPGHPDAEARTTYVIKELNDKGIKTEQLQLDTAMWDTAQAKDKMDAWLSGPNANKIEVVIANNDRMAMGAVEALKAHKKSSIPVFGVDASPEALALVKSGALAGTVLNDANNQAKATFDLAKNLADGKGAADGTNWKIDNKVVRVPYVGVDKDNLAEFSKK

>  <observed>
0.3

$$$$
>  <molecule>
Modified protein 5: 3M-GGBP (SEQ ID NO:3) with substitutions Q175E, Q177H, L178M (protein) ADTRIGVTIYKYDDNFMSVVRKAIEQDAKAAPDVQLLMNDSQNDQSKQNDQIDVLLAKGVKALAINLVDPAAAGTVIEKARGQNVPVVFFNKEPSRKALDSYDKAYYVGTDSKESGIIQGDLIAKHWAANQGWDLNKDGQIQFVLLKGCPGHPDAEARTTYVIKELNDKGIKTEELHMDTAMWDTAQAKDKMDAWLSGPNANKIEVVIANNDRMAMGAVEALKAHNKSSIPVFGVDASPEALALVKSGALAGTVLNDANNQAKATFDLAKNLADGKGAADGTNWKIDNKVVRVPYVGVDKDNLAEFSKK

>  <observed>
3

$$$$

Prompt: Which + ΔTm reading was recorded for the molecule Modified protein 1: 3M-GGBP (SEQ ID NO:3) with substitution N39I (protein) ADTRIGVTIYKYDDNFMSVVRKAIEQDAKAAPDVQLLMIDSQNDQSKQNDQIDVLLAKGVKALAINLVDPAAAGTVIEKARGQNVPVVFFNKEPSRKALDSYDKAYYVGTDSKESGIIQGDLIAKHWAANQGWDLNKDGQIQFVLLKGCPGHPDAEARTTYVIKELNDKGIKTEQLQLDTAMWDTAQAKDKMDAWLSGPNANKIEVVIANNDRMAMGAVEALKAHNKSSIPVFGVDASPEALALVKSGALAGTVLNDANNQAKATFDLAKNLADGKGAADGTNWKIDNKVVRVPYVGVDKDNLAEFSKK ?
Response: 1

Prompt: For the molecule Modified protein 10: 3M-GGBP (SEQ ID NO:3) with substitutions N259E, N260S (protein) ADTRIGVTIYKYDDNFMSVVRKAIEQDAKAAPDVQLLMNDSQNDQSKQNDQIDVLLAKGVKALAINLVDPAAAGTVIEKARGQNVPVVFFNKEPSRKALDSYDKAYYVGTDSKESGIIQGDLIAKHWAANQGWDLNKDGQIQFVLLKGCPGHPDAEARTTYVIKELNDKGIKTEQLQLDTAMWDTAQAKDKMDAWLSGPNANKIEVVIANNDRMAMGAVEALKAHNKSSIPVFGVDASPEALALVKSGALAGTVLNDAESQAKATFDLAKNLADGKGAADGTNWKIDNKVVRVPYVGVDKDNLAEFSKK , what + ΔTm is on record?
Response: 3.6
